target: Prostaglandin E2 receptor EP1 (Cavia porcellus); assay: PGE-2 (EP1 subtype) antagonistic activity as PGE2-stimulated guinea pig ileum muscle strip assay; conditions: read-out: pA2 (converted)
Mark each entry True if its Kb sits below 60 nM, and False for all others.

Asked: Given the entry O=C(NNC(=O)C(F)(F)C(O)c1ccccn1)N1Cc2ccccc2Oc2ccc(Cl)cc21 (stereo not drawn) , would its reported Kb be below 60 nM?
Given back: True

* * *

molecular target: Prostaglandin E2 receptor EP1 (Cavia porcellus); assay: PGE-2 (EP1 subtype) antagonistic activity as PGE2-stimulated guinea pig ileum muscle strip assay; settings: read-out: pA2 (converted)
Catalogue of Kb values
Unit nM implied. Number only.

| substanceSmiles | unitSpec | Kb |
| --- | --- | --- |
| O=C(CCSCc1ccco1)NCC(=O)N1Cc2ccccc2Oc2ccc(Cl)cc21 | nM | 39.8 |
| O=C(CCc1ccncc1)NCC(=O)N1Cc2ccccc2Oc2ccc(Cl)cc21 | nM | 2000 |
| CCS(=O)(=O)CCC(=O)CNC(=O)N1Cc2ccccc2Oc2ccc(Cl)cc21 | nM | 2510 |
| O=C(CCc1ccncc1)NNC(=O)N1Cc2ccccc2Oc2ccc(Cl)cc21 | nM | 316 |
| CCS(=O)(=O)CCC(=O)NCC(=O)N1Cc2ccccc2Oc2ccc(Cl)cc21 | nM | 2000 |
| CCS(=O)(=O)CCC(=O)NNC(=O)N1Cc2ccccc2Oc2ccc(Cl)cc21 | nM | 1580 |

Here's the next entry for you.
Asked: Dear colleague, I am looking for the recorded Kb of the following compound: `O=C(CCSCc1ccco1)CNC(=O)N1Cc2ccccc2Oc2ccc(Cl)cc21`
Given back: 63.1

Source listed as ChEMBL document CHEMBL1129733.
